What follows is a record of MIC for Sarcina lutea ATCC 9341.
// note: answer is a bare numeric in µg/mL

Notebook entry, Sarcina lutea ATCC 9341 assay: MIC of Cc1cc(C)c2c(=O)c(C(=O)O)cn3c2c1C1CCCCC13 (stereo not drawn) = ?
100

Given the entry O=C(O)c1cn2c3c(cc(F)cc3c1=O)C1CCCCC12 (stereo not drawn) , what MIC was observed with Sarcina lutea ATCC 9341?
50

Item: COc1cc2c3c(c1)c(=O)c(C(=O)O)cn3C1CCCCC21 (stereo not drawn) Test system: Sarcina lutea ATCC 9341 Read-out: MIC Value: ?
100

Identify the measured MIC of O=C(OCCBr)c1cn2c3c(cc(F)cc3c1=O)C1CCCCC12 (stereo not drawn) for Sarcina lutea ATCC 9341.
100

Query MIC on Sarcina lutea ATCC 9341 for CC1CCN(CCOC(=O)c2cn3c4c(cc(F)cc4c2=O)C2CCCCC23)CC1 (stereo not drawn)
50

Value wanted: MIC (Sarcina lutea ATCC 9341) of entry CCOC(=O)c1cn2c3c(cc(F)cc3c1=O)C1CCCCC12 (stereo not drawn)
100

----------
parameter: MIC (µg/mL)
Please respond with the number in µg/mL and leave the unit unwritten.

API: value(readout=MIC, system=Enterbactor aerogenes IFO 12979) for record CC1CCN(CCOC(=O)c2cn3c4c(cc(F)cc4c2=O)C2CCCCC23)CC1 (stereo not shown)
6.3

Form entry - test system: Enterbactor aerogenes IFO 12979; read-out: MIC; compound: O=C(NN=Cc1ccc([N+](=O)[O-])o1)c1cn2c3c(cc(F)cc3c1=O)C1CCCCC12 (stereo not shown)
6.3

Lab note: need MIC for CCn1cc(C(=O)O)c(=O)c2ccc(C)nc21 [Compound 13, reference compound] on Enterbactor aerogenes IFO 12979, anyone have it?
6.3

Please provide the recorded MIC for Nc1ccc2c3c1c(=O)c(C(=O)O)cn3C1CCCCC21 (stereo not shown) , tested on Enterbactor aerogenes IFO 12979.
12.5

Checklist item: MIC tested on Enterbactor aerogenes IFO 12979, entry COc1cc2c3c(c1)c(=O)c(C(=O)O)cn3C1CCCCC21 (stereo not shown) , value?
6.3

Reported MIC for Enterbactor aerogenes IFO 12979, given O=C(O)c1cn2c3c(cccc3c1=O)C1CCCCC12 (stereo not shown) ?
12.5

Under Enterbactor aerogenes IFO 12979: MIC value of O=C(OCCBr)c1cn2c3c(cc(F)cc3c1=O)C1CCCCC12 (stereo not shown) ?
25

Form entry - test system: Enterbactor aerogenes IFO 12979; read-out: MIC; compound: CC(=O)Nc1ccc2c3c1c(=O)c(C(=O)O)cn3C1CCCCC21 (stereo not shown)
6.3

Field: MIC (Enterbactor aerogenes IFO 12979). Entry: NNC(=O)c1cn2c3c(cc(F)cc3c1=O)C1CCCCC12 (stereo not shown)
12.5

State its MIC on Enterbactor aerogenes IFO 12979: O=C(O)c1cn2c3c(cc(F)cc3c1=O)C1CCCCC12 (stereo not shown)
3.2

Find the measured MIC: item O=C(O)c1cn2c3c(ccc([N+](=O)[O-])c3c1=O)C1CCCCC12 (stereo not shown) , target or system Enterbactor aerogenes IFO 12979.
6.3

Quick check: MIC on Enterbactor aerogenes IFO 12979, item CCOC(=O)c1cn2c3c(cc(F)cc3c1=O)C1CCCCC12 (stereo not shown) ?
25

What reported MIC corresponds to Cc1cc(C)c2c(=O)c(C(=O)O)cn3c2c1C1CCCCC13 (stereo not shown) on Enterbactor aerogenes IFO 12979?
12.5
